# System: sugar beet
# testDetails: Test B pre/postemergence sugar beet
# Format: in vivo, Beta vulgaris
# reportedConditions: Preemergence, Rate 62 g/ha; scale 0 to 10 (0 no effect, 10 complete control)
outcomeMeasure: Sugarbeets plant response rating

INSERT INTO assay_data (molecule, outcomemeasure, value) VALUES
  ('CCn1c(=O)on(C(=O)N(c2ccc(Cl)cc2)C(C)C)c1=O', 'Sugarbeets plant response rating', 3),
  ('CCN(C(=O)n1oc(=O)n(-c2c(C)cc(C)cc2C)c1=O)C1CCCCC1', 'Sugarbeets plant response rating', 0),
  ('CCC(C)n1c(=O)on(C(=O)N(c2ccc(F)cc2)C(C)C)c1=O (stereo not shown)', 'Sugarbeets plant response rating', 3),
  ('Cc1noc(C)c1-n1c(=O)on(C(=O)N(c2ccc(F)cc2)C(C)C)c1=O', 'Sugarbeets plant response rating', 0),
  ('CC(C)N(C(=O)n1oc(=O)n(CC2CC2)c1=O)c1ccccc1', 'Sugarbeets plant response rating', 5),
  ('CC(C)N(C(=O)n1oc(=O)n(C2CCCCC2)c1=O)c1ccc(Cl)cc1', 'Sugarbeets plant response rating', 0),
  ('CCN(CC)C(=O)n1oc(=O)n(-c2cccc3c2CCCC3)c1=O', 'Sugarbeets plant response rating', 0);

----------
# Tested on: sugar beet
# testDetails: Test B pre/postemergence sugar beet
# Format: in vivo, Beta vulgaris
# reportedConditions: Preemergence, Rate 250 g/ha; scale 0 to 10, 0 is no effect, 10 is complete control
The following compounds are shown together with reported Sugarbeets plant response rating values.
outcomeMeasure: Sugarbeets plant response rating

INSERT INTO assay_data (compound, testedtarget, value) VALUES
  ('CC(C)Cn1c(=O)on(C(=O)N(c2ccc(Cl)cc2)C(C)C)c1=O [Compound 417]', 'sugar beet', 2),
  ('CC(C)N(C(=O)n1oc(=O)n(CCCl)c1=O)c1ccc(Cl)cc1 [Compound 474]', 'sugar beet', 0),
  ('C=CC[Si](C)(C)Cn1c(=O)on(C(=O)N(c2ccc(F)cc2)C(C)C)c1=O [Compound 426]', 'sugar beet', 4),
  ('Cc1nc(C)c(Cn2c(=O)on(C(=O)N(c3ccc(Cl)cc3)C(C)C)c2=O)s1 [Compound 191]', 'sugar beet', 0),
  ('COC(OC)C(C)n1c(=O)on(C(=O)N(c2ccc(F)cc2F)C(C)C)c1=O (centres unmarked) [Compound 472]', 'sugar beet', 3),
  ('CC(C)N(C(=O)n1oc(=O)n(C2CCOCC2)c1=O)c1ccccc1 [Compound 416]', 'sugar beet', 7),
  ('C=CCn1c(=O)on(C(=O)N(c2ccc(F)cc2)C2CCC2)c1=O [Compound 194]', 'sugar beet', 2),
  ('CC(C)N(C(=O)n1oc(=O)n(CCC[Si](C)(C)C)c1=O)c1ccc(F)cc1 [Compound 461]', 'sugar beet', 0);

----------
# Tested on: surinam grass
# testDetails: Test B pre/postemergence surinam grass
# Type: in vivo, Brachiaria decumbens
# reportedConditions: Postemergence, Rate 125 g/ha; scale of 0 to 10 where 0 is no effect and 10 is complete control
The following compounds are shown together with reported Plant response rating, B. signalgrass values.
outcomeMeasure: Plant response rating, B. signalgrass

INSERT INTO results (compound, testedtarget, value) VALUES
  ('CCc1nc(C)c(C(C)n2c(=O)on(C(=O)N(c3ccc(Cl)cc3)C(C)C)c2=O)s1 (centres unmarked) [Compound 590]', 'surinam grass', 0),
  ('CC(C)N(C(=O)n1oc(=O)n(CCC(=O)N(C)C)c1=O)c1ccccc1 [Compound 671]', 'surinam grass', 1),
  ('CC(C)N(C(=O)n1oc(=O)n(CCCCF)c1=O)c1ccccc1 [Compound 581]', 'surinam grass', 5),
  ('CCC(C)n1c(=O)on(C(=O)N(c2ccc(F)cc2)C(C)C)c1=O (centres unmarked) [Compound 613]', 'surinam grass', 3),
  ('CC(C)N(C(=O)n1oc(=O)n(CC2=NOCCC2)c1=O)c1ccc(F)cc1 [Compound 601]', 'surinam grass', 0);
